The reported measurements were obtained from the supplement of paper PMC10065799.

phosphorylation enrichment for assorted sequences
System: Fer (mouse)
Assay: phosphorylation enrichment, bacterial display (enrichment ratio); higher = better substrate or ligand; peptides without Tyr show the background;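 note: 11-residue human phosphosite peptides and single-mutation variants displayed on the E. coli surface, counted by deep sequencing, each peptide's frequency after selection divided by its frequency in the unselected input library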;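 note: frequency after pTyr selection over input frequency; kinase dosed for 20-30% of maximal phosphorylation in three min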

# residue.codes, assayed.target, phosphorylation enrichment
data = [
    ("AAVDTYCRHNF [HLA-DRB1_Y107_YF]", "Fer (mouse)", 0.589),
    ("PVDVAYRRGYF [PLEC_Y2967]", "Fer (mouse)", 0.601),
    ("PSARTYCYKQE [KLHDC9_Y175]", "Fer (mouse)", 0.666),
    ("VTQEQYELFCE [CBL_Y368_YF]", "Fer (mouse)", 0.737),
    ("ILTLKYPIELG [ACTA1_Y71_H75L]", "Fer (mouse)", 0.457),
    ("NVFGNYNNQSS [HNRNPA1_Y318_D314V]", "Fer (mouse)", 0.448),
    ("WKEIEYEVVPD [CPS1_Y634_R638P]", "Fer (mouse)", 0.554),
    ("KQLFAYKMLMA [TMC2_Y209_YF]", "Fer (mouse)", 0.445),
    ("QTPVLYAMLDH [MPZ_Y220]", "Fer (mouse)", 9.39),
    ("KYVKMYDNHQL [MYO9A_Y203]", "Fer (mouse)", 0.441),
    ("KPNMNYDKLSW [FLI1_Y332_R337W]", "Fer (mouse)", 0.555),
    ("PFIDSYEKDVA [PGM1_Y521_L516P_YF]", "Fer (mouse)", 0.35),
    ("GIVEDYRPPFY [ACVRL1_Y421]", "Fer (mouse)", 0.457),
    ("GEVKAYGAGLL [TH_Y419]", "Fer (mouse)", 0.319),
    ("AGAKTYKMSMA [CPS1_Y309]", "Fer (mouse)", 0.406),
    ("KSEKVYTRHGV [FLOT1_Y56]", "Fer (mouse)", 0.417),
    ("EVLKNYNQQKD [GOLGA4_Y1551]", "Fer (mouse)", 0.552),
    ("GIVKAYYVHAR [AIPL1_Y267_R270H]", "Fer (mouse)", 0.452),
    ("EIIPFYGMSTF [FNDC3B_Y175_YF]", "Fer (mouse)", 0.897),
    ("GESLTYASTTF [C1orf162_Y120]", "Fer (mouse)", 0.52),
    ("EKEQNYDLTEV [ECD_Y448]", "Fer (mouse)", 0.694),
    ("AFRHGYFDEEM [PLEC_Y2971_R2969H_YF]", "Fer (mouse)", 0.593),
    ("EMFNPYYGLFE [NEDD4L_Y679]", "Fer (mouse)", 6.32),
    ("GRQGIYTKNER [GPR143_Y231_E233K]", "Fer (mouse)", 0.556),
    ("VDDEIYYFRKP [PBRM1_Y1289]", "Fer (mouse)", 1.29),
    ("SQQTYYRVSNM [ABCD1_Y181]", "Fer (mouse)", 0.401),
    ("KVGNEYVTKGQ [MYH7_Y410]", "Fer (mouse)", 0.269),
    ("AHEALYLEADL [CENPF_Y1920_E1915A]", "Fer (mouse)", 1.12),
    ("NGEDLYAGSTD [XRCC1_Y515_P514L]", "Fer (mouse)", 0.52),
    ("EASGIYVKSVI [PATJ_Y396_I400V]", "Fer (mouse)", 0.481),
    ("KRLWDYGMSSS [F8_Y1728_E1723K]", "Fer (mouse)", 0.339),
    ("KFLVGYEMLAQ [GALT_Y339_M336L]", "Fer (mouse)", 0.395),
    ("TTGLIYIGSHD [AASDH_Y870]", "Fer (mouse)", 0.424),
    ("IGCHAYGDQFR [IDH1_Y135_R132C_YF]", "Fer (mouse)", 0.55),
    ("TQPSPYAVFRF [RPGRIP1_Y823_YF]", "Fer (mouse)", 9.31),
    ("KSVSQYLEMDK [CAGE1_Y438]", "Fer (mouse)", 0.424),
    ("IVGRLYRLLTE [SETX_Y1978_L1976R]", "Fer (mouse)", 0.37),
    ("PTQLPYDHKWK [KIT_Y578_E583K]", "Fer (mouse)", 0.478),
    ("FLNSIYKSRDE [ROS1_Y2227]", "Fer (mouse)", 0.342),
    ("TTKAKYKTPTY [PLD2_Y573]", "Fer (mouse)", 0.336),
    ("RMDGKYACSYT [FLNB_Y704_T703K]", "Fer (mouse)", 0.635),
    ("PEFVVYKPQME [CCRL2_Y170]", "Fer (mouse)", 0.898),
    ("QMVDMYASSFM [AVPR2_Y124_G122D_YF]", "Fer (mouse)", 0.9),
]

---

Biological target: EPHB2 (UniProt P29323)
Sequence (P29323 whole entry, looked up): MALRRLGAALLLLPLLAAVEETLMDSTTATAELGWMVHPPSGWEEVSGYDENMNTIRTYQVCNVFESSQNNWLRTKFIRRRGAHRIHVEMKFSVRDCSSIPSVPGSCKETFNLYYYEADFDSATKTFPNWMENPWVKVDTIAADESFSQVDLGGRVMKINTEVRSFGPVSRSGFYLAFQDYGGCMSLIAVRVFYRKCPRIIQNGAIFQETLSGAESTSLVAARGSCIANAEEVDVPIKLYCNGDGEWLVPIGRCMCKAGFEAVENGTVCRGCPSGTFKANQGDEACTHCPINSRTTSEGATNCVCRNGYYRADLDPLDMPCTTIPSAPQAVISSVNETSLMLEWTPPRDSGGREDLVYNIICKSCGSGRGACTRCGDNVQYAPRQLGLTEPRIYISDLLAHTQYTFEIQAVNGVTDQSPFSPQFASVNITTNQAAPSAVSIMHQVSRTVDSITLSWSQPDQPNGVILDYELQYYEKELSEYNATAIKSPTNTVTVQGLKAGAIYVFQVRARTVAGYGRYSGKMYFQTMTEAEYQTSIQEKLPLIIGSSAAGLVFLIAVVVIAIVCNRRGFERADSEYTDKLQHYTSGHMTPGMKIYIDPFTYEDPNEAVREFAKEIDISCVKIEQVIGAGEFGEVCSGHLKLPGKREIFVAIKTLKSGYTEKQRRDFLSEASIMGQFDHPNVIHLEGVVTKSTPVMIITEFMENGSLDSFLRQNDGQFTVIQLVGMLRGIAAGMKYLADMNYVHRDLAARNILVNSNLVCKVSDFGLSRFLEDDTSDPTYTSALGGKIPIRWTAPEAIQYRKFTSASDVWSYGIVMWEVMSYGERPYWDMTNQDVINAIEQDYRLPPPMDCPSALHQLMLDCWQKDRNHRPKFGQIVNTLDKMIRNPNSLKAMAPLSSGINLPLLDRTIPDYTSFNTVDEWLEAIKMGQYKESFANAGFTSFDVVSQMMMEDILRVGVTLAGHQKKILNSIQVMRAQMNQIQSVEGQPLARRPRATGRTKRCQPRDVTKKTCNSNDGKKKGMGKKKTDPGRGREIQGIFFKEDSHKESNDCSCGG
Test: phosphorylation enrichment, bacterial display (enrichment ratio); higher = better substrate or ligand; peptides without Tyr show the background
phosphorylation enrichment for assorted sequences

# residue.codes, assayed.target, phosphorylation enrichment
measured = [
    ("VSNFNYFFHRE [KCNA1_Y413_YF]", "EPHB2 (UniProt P29323)", 0.509),
    ("GFVEDYRPPFY [ACVRL1_Y421_I417F]", "EPHB2 (UniProt P29323)", 0.491),
    ("LLKAKYELLNA [POLR3A_Y714]", "EPHB2 (UniProt P29323)", 0.491),
    ("LHRHAYPEQRQ [DPPA2_Y127]", "EPHB2 (UniProt P29323)", 0.594),
    ("IVGRLYRLLTE [SETX_Y1978_L1976R]", "EPHB2 (UniProt P29323)", 0.494),
    ("AMGAVYQAAAL [HYOU1_Y421]", "EPHB2 (UniProt P29323)", 0.512),
    ("KFDLMYAKWAF [TUBA3E_Y399]", "EPHB2 (UniProt P29323)", 0.784),
    ("PRAGVYPEKDQ [DNM2_Y626_L621P]", "EPHB2 (UniProt P29323)", 0.622),
    ("EKQARYEIVVE [CDH5_Y223]", "EPHB2 (UniProt P29323)", 0.57),
    ("HDRNTYEKFLE [TF_Y666_G671E_YF]", "EPHB2 (UniProt P29323)", 0.64),
    ("SGVNKYSTAFG [GJB3_Y16]", "EPHB2 (UniProt P29323)", 0.384),
    ("PSQRRYLYYYS [PTEN_Y174_V175L]", "EPHB2 (UniProt P29323)", 0.697),
    ("LRFEVYGGENE [STOX1_Y610_YF]", "EPHB2 (UniProt P29323)", 0.855),
    ("SVTCTYSPALS [TP53_Y126_N131S]", "EPHB2 (UniProt P29323)", 0.645),
    ("ELPEKYSQNIF [PKP2_Y626_YF]", "EPHB2 (UniProt P29323)", 0.492),
]

---

Target: FGFR1 (UniProt P11362)
Sequence (P11362 whole entry, looked up): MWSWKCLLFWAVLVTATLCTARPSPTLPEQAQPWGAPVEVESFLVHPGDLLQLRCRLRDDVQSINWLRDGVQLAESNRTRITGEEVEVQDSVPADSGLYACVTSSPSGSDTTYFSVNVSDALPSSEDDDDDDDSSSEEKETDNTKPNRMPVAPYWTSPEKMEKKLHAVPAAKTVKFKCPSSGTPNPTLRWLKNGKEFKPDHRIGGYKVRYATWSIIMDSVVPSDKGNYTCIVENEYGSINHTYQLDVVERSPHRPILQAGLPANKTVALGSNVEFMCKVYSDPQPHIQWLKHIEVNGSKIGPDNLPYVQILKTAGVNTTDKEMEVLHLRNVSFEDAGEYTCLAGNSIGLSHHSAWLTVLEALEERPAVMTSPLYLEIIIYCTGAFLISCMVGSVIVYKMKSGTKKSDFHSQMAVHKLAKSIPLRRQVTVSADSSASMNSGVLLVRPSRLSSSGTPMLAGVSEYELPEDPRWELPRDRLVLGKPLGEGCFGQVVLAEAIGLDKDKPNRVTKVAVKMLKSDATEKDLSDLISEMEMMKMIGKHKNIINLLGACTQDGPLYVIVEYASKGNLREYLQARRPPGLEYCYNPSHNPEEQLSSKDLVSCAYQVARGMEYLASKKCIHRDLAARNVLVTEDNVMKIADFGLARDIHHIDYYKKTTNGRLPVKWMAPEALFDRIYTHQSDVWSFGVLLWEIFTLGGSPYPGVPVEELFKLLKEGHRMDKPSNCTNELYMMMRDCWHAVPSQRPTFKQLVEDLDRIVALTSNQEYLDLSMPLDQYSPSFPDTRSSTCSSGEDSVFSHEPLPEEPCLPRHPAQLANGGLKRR
Assay: phosphorylation enrichment, bacterial display (enrichment ratio); higher = better substrate or ligand; peptides without Tyr show the background
Decision: phosphorylation enrichment >= 0.5 yields T, all other cases yield F.

# residue.codes, assayed.target, qualitative.label
measured = [
    ("YYHCTYKQRMI [CLEC12A_Y242_K244Q]", "FGFR1 (UniProt P11362)", "T"),
    ("VVFIKYLPEWT [PSEN1_Y240_L235V]", "FGFR1 (UniProt P11362)", "F"),
    ("LRFEVYGGENE [STOX1_Y610_YF]", "FGFR1 (UniProt P11362)", "T"),
    ("EKQARYEIVVE [CDH5_Y223]", "FGFR1 (UniProt P11362)", "F"),
]

---

phosphorylation enrichment for assorted sequences
Target: EPHB2 (UniProt P29323)
Assay: phosphorylation enrichment, bacterial display (enrichment ratio); higher = better substrate or ligand; peptides without Tyr show the background

# residue.codes, phosphorylation enrichment
rows = [
    ("THEVRYVSAGQ [SLCO4A1_Y77]", 0.368),
    ("IRQDHYESLKE [MTR_Y921]", 0.482),
    ("SSKILYHIIKG [CDH17_Y489]", 0.529),
    ("DVAKEYGHLLP [HRC_Y99_S96A]", 0.512),
    ("FLAVGYHKTHI [IDS_Y225_P228T]", 0.484),
    ("WSFNLYDINKD [KCNIP3_Y174_A170S]", 0.875),
    ("LSQAKYQIRYR [CRLF1_Y272_F268S]", 0.764),
    ("LFLALYTGLVR [PIGB_Y402_H407R]", 0.573),
    ("LMVFEYMRHGN [NTRK1_Y591_D596N]", 0.692),
    ("DTNIAYWLHPR [POMT1_Y581]", 0.44),
    ("RTVPLYESPRK [DDB1_Y718]", 26.6),
    ("VGTKQYMAPEV [ACVRL1_Y375_R374Q]", 0.653),
    ("FLAVGYHKPFI [IDS_Y225_H229Y_YF]", 0.416),
    ("CITIHYNFMCN [TP53_Y234_T230I_YF]", 0.711),
    ("RGNMFYENSFA [EGFR_Y113_YF]", 0.663),
]
